Target: Arginase-2, mitochondrial (Homo sapiens)
Sequence (whole entry): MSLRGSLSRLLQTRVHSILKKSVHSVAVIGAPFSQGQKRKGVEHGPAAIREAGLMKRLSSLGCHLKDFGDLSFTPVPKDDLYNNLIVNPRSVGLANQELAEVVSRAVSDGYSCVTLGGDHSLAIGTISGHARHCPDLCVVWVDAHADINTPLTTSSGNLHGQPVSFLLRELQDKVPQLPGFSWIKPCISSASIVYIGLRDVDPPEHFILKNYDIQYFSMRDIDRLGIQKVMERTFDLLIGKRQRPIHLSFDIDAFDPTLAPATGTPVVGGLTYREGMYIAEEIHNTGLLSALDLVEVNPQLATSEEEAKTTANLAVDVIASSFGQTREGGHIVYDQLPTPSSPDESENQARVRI
Assay: in vitro enzyme assay to detect the production of urea directly proportional to the activity of Arginase II
Assay type: functional
Design: scale not given: in the data most compounds retested in dose-response had high values
Conditions: 33.3 µM
OBSERVATION_TYPE: Percent Effect (%)
# unit: % | format: bare number

The cases that follow already have their Percent Effect on record.
>>> observed_value("CCn1cc(CN2CCCN(C(=O)Cc3ccc(C)nc3)CC2)cn1")
-3.58
>>> observed_value("CCS(=O)(=O)N[C@@H]1CN(Cc2cc(C)on2)C[C@@H]2CCCO[C@@H]21")
4.71
>>> observed_value("COCC(=O)NC1CC2(CCN(CCF)CC2)Oc2ccccc21 (stereo not drawn)")
1.37
>>> observed_value("c1ccc(N2CCCC3(CCN(Cc4cccs4)C3)C2)nc1 (stereo not drawn)")
-0.913
>>> observed_value("c1ccc(CN2C[C@@H]3OCCN(CC4CCCO4)[C@@H]3C2)nc1 (stereo partly drawn)")
15
>>> observed_value("CS(=O)(=O)N1CCC(C(=O)N2CCC3(CC2)OCCCO3)CC1")
3.23

(Q) Need Percent Effect, item O=C1CSC(c2ccsc2)c2c(n(C3CCOCC3)[nH]c2=O)N1 (stereo not drawn)
(A) 94.2

(Q) Also CCN1CCC2(COCc3cnc(-c4cccnc4)nc32)C1 (stereo not drawn) ?
(A) -4.78

(Q) Also `COc1ccc(Cl)cc1CC(=O)N1CCN(CCO)CC1` ?
(A) 4.71

(Q) Also `O=C(Cc1ccccn1)N1CCN2C[C@H](Oc3cccc(F)c3)C[C@H]2C1` ?
(A) -1.59
